# Tested on: SN12K1
# EXPERIMENT_NOTES: cells
# Format: functional
# EXPERIMENTAL_SETUP: Homo sapiens
Activity calls are given as the source filed them. No stated cut-off is given here; in the data, active = GI50 up to about 1.1 µM and inactive = higher.
PROPERTY: GI50

In [3]: df
Out[3]:
                                   compound       reported_result
0  COC(=O)c1ccc(/N=N/N(C)COc2ccc(Br)cc2)cc1  > 66.8 µM (inactive)
1  CC(C)Cc1ccc(C(C)C(=O)N2CCN(/C=C/c3ccccc3)CC2)cc1 (centres undefined)    13.7 µM (inactive)
2  CCCC(=O)OCC1OC(n2ccc(N)nc2=O)C(OC(=O)CCC)C1OC(=O)CCC (centres undefined)    1.86 µM (inactive)

In the following, a different compound is considered.
query: I have this compound here, `O=C[C@@H](CO)O[C@H](C=O)c1c[nH]c(=O)[nH]c1=O` , and I need its recorded GI50.
result: 76.6 µM (inactive)

The reported numbers originate from ChEMBL document CHEMBL1201862.
